sequences and their reported total protein half-life in vivo
test: total protein half-life in vivo (active degradation + dilution); higher = more stable protein; details: E. coli NCM3722 delta-clpP; growth: N-lim chemostat; doubling time 6 h
value_type: total protein half-life in vivo (h)

| sequence_input | value_type | unit_text | value |
| --- | --- | --- | --- |
| MDKSKRHLAWWVVGLLAVAAIVAWWLLRPAGVPEGFAVSNGRIEATEVDIASKIAGRIDTILVKEGKFVREGEVLAKMDTRVLQEQRLEAIAQIKEAQSAVAAAQALLEQRQSETRAAQSLVNQRQAELDSVAKRHTRSRSLAQRGAISAQQLDDDRAAAESARAALESAKAQVSASKAAIEAARTNIIQAQTRVEAAQATERRIAADIDDSELKAPRDGRVQYRVAEPGEVLAAGGRVLNMVDLSDVYMTFFLPTEQAGTLKLGGEARLILDAAPDLRIPATISFVASVAQFTPKTVETSDERLKLMFRVKARIPPELLQQHLEYVKTGLPGVAWVRVNEELPWPDDLVVRLPQ | total protein half-life in vivo | h | 6.23 |
| MKLTIIRLEKFSDQDRIDLQKIWPEYSPSSLQVDDNHRIYAARFNERLLAAVRVTLSGTEGALDSLRVREVTRRRGVGQYLLEEVLRNNPGVSCWWMADAGVEDRGVMTAFMQALGFTAQQGGWEKC | total protein half-life in vivo | h | 3.9 |
| MQFDWSAIWPAIPLLIEGAKMTLWISVLGLAGGLVIGLLAGFARTFGGWIANHVALVFIEVIRGTPIVVQVMFIYFALPMAFNDLRIDPFTAAVVTIMINSGAYIAEITRGAVLSIHKGFREAGLALGLSRWETIRYVILPLALRRMLPPLGNQWIISIKDTSLFIVIGVAELTRQGQEIIAGNFRALEIWSAVAVFYLIITLVLSFILRRLERRMKIL [P0AEQ6] | total protein half-life in vivo | h | 5.86 |
| MNTDTFMCSSDEKQTRSPLSLYSEYQRMEIEFRAPHIMPTSHWHGQVEVNVPFDGDVEYLINNEKVNINQGHITLFWACTPHQLTDTGTCQSMAIFNLPMHLFLSWPLDKDLINHVTHGMVIKSLATQQLSPFEVRRWQQELNSPNEQIRQLAIDEIGLMLKRFSLSGWEPILVNKTSRTHKNSVSRHAQFYVSQMLGFIAENYDQALTINDVAEHVKLNANYAMGIFQRVMQLTMKQYITAMRINHVRALLSDTDKSILDIALTAGFRSSSRFYSTFGKYVGMSPQQYRKLSQQRRQTFPG [P0ACH8] | total protein half-life in vivo | h | 2.09 |

----------
Below, each entry is listed with its recorded total protein half-life in vivo.
test: total protein half-life in vivo (active degradation + dilution); higher = more stable protein; details: wild type E. coli NCM3722; growth: C-lim chemostat; doubling time 3 h
value_type: total protein half-life in vivo (h)

| sequence_input | value |
| --- | --- |
| MQENQQITKKEQYNLNKLQKRLRRNVGEAIADFNMIEEGDRIMVCLSGGKDSYTMLEILRNLQQSAPINFSLVAVNLDQKQPGFPEHVLPEYLEKLGVEYKIVEENTYGIVKEKIPEGKTTCSLCSRLRRGILYRTATELGATKIALGHHRDDILQTLFLNMFYGGKMKGMPPKLMSDDGKHIVIRPLAYCREKDIQRFADAKAFPIIPCNLCGSQPNLQRQVIADMLRDWDKRYPGRIETMFSAMQNVVPSHLCDTNLFDFKGITHGSEVVNGGDLAFDREEIPLQPACWQPEEDENQLDELRLNVVEVK | 1.63 |
| MQNTTHDNVILELTVRNHPGVMTHVCGLFARRAFNVEGILCLPIQDSDKSHIWLLVNDDQRLEQMISQIDKLEDVVKVQRNQSDPTMFNKIAVFFQ [P0ADF8] | 2.47 |

----------
test: total protein half-life in vivo (active degradation + dilution); higher = more stable protein; conditions: wild type E. coli NCM3722; growth: N-lim chemostat; doubling time 6 h
Readings of total protein half-life in vivo for the listed sequences

| sequence_input | total protein half-life in vivo |
| --- | --- |
| MTHFSQQDNFSVAARVLGALFYYAPESAEAAPLVAVLTSDGWETQWPLPEASLAPLVTAFQTQCEETHAQAWQRLFVGPWALPSPPWGSVWLDRESVLFGDSTLALRQWMREKGIQFEMKQNEPEDHFGSLLLMAAWLAENGRQTECEELLAWHLFPWSTRFLDVFIEKAEHPFYRALGELARLTLAQWQSQLLIPVAVKPLFR | 4.4 h |
| MNKSMLAGIGIGVAAALGVAAVASLNVFERGPQYAQVVSATPIKETVKTPRQECRNVTVTHRRPVQDENRITGSVLGAVAGGVIGHQFGGGRGKDVATVVGALGGGYAGNQIQGSLQESDTYTTTQQRCKTVYDKSEKMLGYDVTYKIGDQQGKIRMDRDPGTQIPLDSNGQLILNNKV [P0AB35] | 0.945 h |
| MGQLIDGVWHDTWYDTKSTGGKFQRSASAFRNWLTADGAPGPTGTGGFIAEKDRYHLYVSLACPWAHRTLIMRKLKGLEPFISVSVVNPLMLENGWTFDDSFPGATGDTLYQNEFLYQLYLHADPHYSGRVTVPVLWDKKNHTIVSNESAEIIRMFNTAFDALGAKAGDYYPPALQTKIDELNGWIYDTVNNGVYKAGFATSQEAYDEAVAKVFESLARLEQILGQHRYLTGNQLTEADIRLWTTLVRFDPVYVTHFKCDKHRISDYLNLYGFLRDIYQMPGIAETVNFDHIRNHYFRSHKTINPTGIISIGPWQDLDEPHGRDVRFG | 5.04 h |

----------
assay: total protein half-life in vivo (active degradation + dilution); higher = more stable protein; details: wild type E. coli NCM3722; growth: C-lim chemostat; doubling time 6 h
// reported total protein half-life in vivo for each item listed
value_type: total protein half-life in vivo (h)

| sequence_input | value |
| --- | --- |
| MTPEHLPTEQYEAQLAEKVVRLQSMMAPFSDLVPEVFRSPVSHYRMRAEFRIWHDGDDLYHIIFDQQTKSRIRVDSFPAASELINQLMTAMIAGVRNNPVLRHKLFQIDYLTTLSNQAVVSLLYHKKLDDEWRQEAEALRDALRAQNLNVHLIGRATKTKIELDQDYIDERLPVAGKEMIYRQVENSFTQPNAAMNIQMLEWALDVTKGSKGDLLELYCGNGNFSLALARNFDRVLATEIAKPSVAAAQYNIAANHIDNVQIIRMAAEEFTQAMNGVREFNRLQGIDLKSYQCETIFVDPPRSGLDSETEKMVQAYPRILYISCNPETLCKNLETLSQTHKVERLALFDQFPYTHHMECGVLLTAK | 6.89 |
| MNISDVAKITGLTSKAIRFYEEKGLVTPPMRSENGYRTYTQQHLNELTLLRQARQVGFNLEESGELVNLFNDPQRHSADVKRRTLEKVAEIERHIEELQSMRDQLLALANACPGDDSADCPIIENLSGCCHHRAG [P0A9G4] | 1.95 |
| MISSLWIAKTGLDAQQTNMDVIANNLANVSTNGFKRQRAVFEDLLYQTIRQPGAQSSEQTTLPSGLQIGTGVRPVATERLHSQGNLSQTNNSKDVAIKGQGFFQVMLPDGSSAYTRDGSFQVDQNGQLVTAGGFQVQPAITIPANALSITIGRDGVVSVTQQGQAAPVQVGQLNLTTFMNDTGLESIGENLYTETQSSGAPNESTPGLNGAGLLYQGYVETSNVNVAEELVNMIQVQRAYEINSKAVSTTDQMLQKLTQL [P0ABX5] | 5.1 |
| MALLDFFLSRKKNTANIAKERLQIIVAERRRSDAEPHYLPQLRKDILEVICKYVQIDPEMVTVQLEQKDGDISILELNVTLPEAEELK [P0A734] | 4.59 |
| MLAFCRSSLKSKKYIIILLALAAIAGLGTHAAWSSNGLPRIDNKTLARLAQQHPVVVLFRHAERCDRSTNQCLSDKTGITVKGTQDARELGNAFSADIPDFDLYSSNTVRTIQSATWFSAGKKLTVDKRLLQCGNEIYSAIKDLQSKAPDKNIVIFTHNHCLTYIAKDKRDATFKPDYLDGLVMHVEKGKVYLDGEFVNH | 4.93 |
| MAKYNEKELADTSKFLSFVLRHKPEAIGIVLDREGWADIDKLILCAQKAGKRLTRALLDTVVATSDKKRFSYSSDGRCIRAVQGHSTSQVAISFAEKTPPQFLYHGTASRFLDEIKKQGLIAGERHYVHLSADEATARKVGARHGSPVILTVKAQEMAKRGLPFWQAENGVWLTSTVAVEFLEW | 2.25 |
| MSKRYFVTGTDTEVGKTVASCALLQAAKAAGYRTAGYKPVASGSEKTPEGLRNSDALALQRNSSLQLDYATVNPYTFAEPTSPHIISAQEGRPIESLVMSAGLRALEQQADWVLVEGAGGWFTPLSDTFTFADWVTQEQLPVILVVGVKLGCINHAMLTAQVIQHAGLTLAGWVANDVTPPGKRHAEYMTTLTRMIPAPLLGEIPWLAENPENAATGKYINLALL | 6.24 |
